Ref: the RNAGym collection of RNA variant scans (doi:10.1073/pnas.2313332121)

Entries annotated with measured polymerase ribozyme fitness (log ratio)
B1: TPR t1 (parent)
chain: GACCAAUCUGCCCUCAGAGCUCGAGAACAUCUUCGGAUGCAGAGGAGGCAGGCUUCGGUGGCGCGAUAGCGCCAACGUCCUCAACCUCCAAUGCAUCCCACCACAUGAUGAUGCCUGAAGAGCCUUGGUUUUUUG

Variants of: B1
Assay: polymerase ribozyme fitness, log enrichment relative to wild type (log ratio); higher = more active; in vitro selection for triplet polymerase activity

| MUTANT_LABEL | polymerase ribozyme fitness (log ratio) |
| --- | --- |
| A18U C76A G93C | -4.09 |
| G63U G113A G128U | -4.06 |
| C15U G57U C102A U116G C123G | -4.08 |

Now take the following variant into account.
Prompt: Given the variant C72G C73U G128U , what is its reported polymerase ribozyme fitness (log ratio)?
Response: -3.92
